- TARGET OR SYSTEM: CCR9 (Homo sapiens (Human))
- METHOD: FLIPR calcium flux assay using MOLT4 cells, TECK stimulation
- Type: cell-based
- PARTICULARS: MOLT4 cells (human T-cell line)
ENDPOINT LABEL: pKi
One number for each entry, as −log10 of the molar value.

These solved cases illustrate the format of a correct answer.
- COMPOUND: "Cn1cc(N2C(=O)c3c(Cl)ccc(NS(=O)(=O)c4ccc(C(F)(F)F)cc4)c3C2=O)cn1 [Compound 143]"
  ENDPOINT LABEL: "pKi"
  VAL: 7.19
- COMPOUND: "Cc1ccc(CN2C(=O)c3c(Cl)ccc(NS(=O)(=O)c4ccc(C(C)(C)C)cc4)c3C2=O)[n+]([O-])c1 [Compound 259]"
  ENDPOINT LABEL: "pKi"
  VAL: 7.89

Now look at this entry.
Give recorded pKi. CC(C)c1ccc(S(=O)(=O)Nc2ccc(Cl)c3c2C(=O)N(c2cccnc2)C3=O)cc1 [Compound 57]
7.42

====

- TARGET OR SYSTEM: CCR9 (Homo sapiens (Human), UniProt P51686)
- Sequence (P51686 whole entry): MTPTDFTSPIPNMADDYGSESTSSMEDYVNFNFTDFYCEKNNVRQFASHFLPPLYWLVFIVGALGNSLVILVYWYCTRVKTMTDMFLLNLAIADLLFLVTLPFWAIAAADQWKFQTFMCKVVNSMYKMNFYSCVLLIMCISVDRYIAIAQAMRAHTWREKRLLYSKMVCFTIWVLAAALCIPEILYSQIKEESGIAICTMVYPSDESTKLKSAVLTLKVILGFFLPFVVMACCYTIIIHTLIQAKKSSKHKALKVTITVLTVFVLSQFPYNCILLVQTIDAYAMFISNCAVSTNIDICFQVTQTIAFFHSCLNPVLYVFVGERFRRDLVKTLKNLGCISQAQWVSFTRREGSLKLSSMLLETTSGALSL
- METHOD: FLIPR calcium flux assay using MOLT4 cells, TECK stimulation
- Type: cell-based
- PARTICULARS: MOLT4 cells (human T-cell line)
Please use y for Ki under 100 nM and n for everything else, ties included.

- MOLECULE: "COc1cc(CN2C(=O)c3c(Cl)ccc(NS(=O)(=O)c4ccc(C(C)(C)C)cc4)c3C2=O)ccn1 [Compound 273]"
  ASSIGNED CATEGORY: "n"
- MOLECULE: "CC(C)(C)c1ccc(S(=O)(=O)Nc2ccc(Cl)c3c2C(=O)N(c2nccs2)C3=O)cc1 [Compound 146]"
  ASSIGNED CATEGORY: "n"

In plain terms, does Cn1ccc(N2C(=O)c3c(Cl)ccc(NS(=O)(=O)c4ccc(C(C)(C)C)cc4)c3C2=O)n1 [Compound 145] come in under 100 nM for Ki?
n

In plain terms, does CC(C)c1ccc(S(=O)(=O)Nc2ccc(Cl)c3c2C(=O)N(c2cccc(C#N)c2)C3=O)cc1 [Compound 125] come in under 100 nM for Ki?
n

In plain terms, does Cc1cccc(N2C(=O)c3c(Cl)ccc(NS(=O)(=O)c4ccc(C(C)(C)C)cc4)c3C2=O)[n+]1[O-] [Compound 233] come in under 100 nM for Ki?
y
